Hello, the source for this data is ChEMBL document CHEMBL1201862, in case you need it.

Reported GI50 values, HCT-15.
Express your answer in µM, writing the number without its unit.

Challenge: Entry `CCc1nc2c([nH]1)C(=O)c1ccccc1C2=O` : reported GI50 = ?
Response given: 51.3

Challenge: Same read-out for `C=CCN1C(=O)CC(=O)N(NC2=NNC3(C(=O)N2)c2ccccc2-c2ccccc23)C1=S` ?
Response given: 35.7

Challenge: Same read-out for CC(C)Oc1c(O)c2c3c(oc(=O)n3C=CC2c2ccccc2)c1OC(C)C (configuration not stated) ?
Response given: 12.8

* * *

# Test system: SF-295
# EXPERIMENTAL DETAILS: NCI tumour cell line growth inhibition, 48 h
The source made the active and inactive calls. Cut-off read from the data, not from the text of the source: active = GI50 up to about 1.1 µM and inactive = higher.
Give measured GI50 for each item. Keep answers brief.

Challenge: API: value(readout=GI50, system=SF-295) for record `C#C/C=C\CCCC/C=C\C#CC#CCCCC#CC#C[C@H](COS(=O)(=O)O)OS(=O)(=O)O`
Response given: > 100 µM (inactive)

Challenge: Request: `N=C(N)NS(=O)(=O)c1ccc(NC(=O)c2cccc3c(Nc4ccc(S(N)(=O)=O)cc4)c4ccccc4nc23)cc1`
Response given: > 100 µM (inactive)

Challenge: Item: `CCOC(=O)/C=C(\C(=O)OCC)n1ccc(=O)n(CC(=O)OCC)c1=O`
Response given: 17.9 µM (inactive)

Challenge: What do we get for `CC(=O)N[C@@H](Cc1ccc(O)cn1)C(=O)NC1CCCCC1` ?
Response given: > 100 µM (inactive)

Challenge: Please answer likewise for `Cc1nc(=O)n2c(C)n[nH]c2c1C(=O)O`
Response given: > 100 µM (inactive)

* * *

Kindly supply the reported GI50 values for the records listed here.
# Tested on: IGROV-1
# EXPERIMENTAL DETAILS: NCI tumour cell line growth inhibition, 48 h
Activity calls are given as the source filed them. Rule as the data show it: active = GI50 up to about 1.1 µM and inactive = higher.

Challenge: I would be grateful if you could share the reported GI50 for CC(=O)c1c(-c2cccc3ccccc23)c(C#N)c(=S)n(C2OC(CO)C(O)C(O)C2O)c1C (stereo unspecified) .
Response given: > 100 µM (inactive)

Challenge: Again, but for `C=C1c2nc3ccccc3n2C=C(c2ccc(Cl)cc2)N1c1ccc(OCCN2CCCCC2)cc1`
Response given: > 45 µM (inactive)

Challenge: // next record COC(=O)C1=C(C(=O)OC)C2CCC1CC2=O (stereo unspecified)
Response given: > 100 µM (inactive)

Challenge: Thanks! And `O=C1c2ccccc2C(=O)N1c1ccc(Cc2ccc(N3C(=O)c4ccccc4C3=O)cc2)cc1` ?
Response given: > 100 µM (inactive)

Challenge: Further, for `Cc1nc(=O)n2c(C)n[nH]c2c1C(=O)O` ?
Response given: > 100 µM (inactive)

Challenge: // repeat for COC(=O)C1Cc2c(OC)ccc(OC)c2C(O)C1C(=O)OC (stereo unspecified) and report
Response given: > 100 µM (inactive)

* * *

# System: HOP-62
# EXPERIMENTAL DETAILS: NCI tumour cell line growth inhibition, 48 h
Active and inactive are the calls of the source. Rule as the data show it: active = GI50 up to about 1.1 µM and inactive = higher.
Choose one outcome from this list and give only that: active, inactive

Challenge: Hello, I am checking results. What call was entered for `COc1cccc(/C=N/NC(=O)CN(C)C)c1O` ?
Response given: inactive

Challenge: Entry to check: C=CCCCC1SC2=C(CC)CCCN2C1=O (stereo not drawn)
Response given: inactive

Challenge: Check C[n+]1c2ccccc2c(NC(CCC(N)=O)C(=O)O)c2ccccc21 (stereo not drawn) too.
Response given: inactive

Challenge: Similarly, `O=S(=O)(O)c1cc(/N=[N+](\[O-])c2cc(S(=O)(=O)O)c3ccccc3c2)cc2ccccc12` ?
Response given: inactive

Challenge: Also check CC1C(=O)O[B-]2(c3ccccc3)Oc3ccccc3C=[N+]12 (stereo not drawn)
Response given: inactive

Challenge: Do the same for `O=C(Nc1nc(C23CC4CC(CC(C4)C2)C3)cs1)c1cc2ccccc2oc1=O` please
Response given: inactive

Challenge: Another compound to check: `CC(C)(C)OC(=O)Cn1ncn(NC(=O)Cc2ccccc2)c1=O`
Response given: inactive

Challenge: One more compound: `Clc1ccc(-c2nnc3c4nnc(-c5ccc(Cl)cc5Cl)n4c4ccccc4n23)c(Cl)c1`
Response given: inactive

Challenge: Entry to check: `CN(/N=C/c1ccc(OCc2cccc(COc3ccc(C=O)cc3)n2)cc1)c1cnn(-c2ccc(Cl)cc2Cl)c(=O)c1Cl`
Response given: inactive

Challenge: Now this one: `C[C@]12CC[C@H]3[C@@H](CC[C@]4(O)C[C@@H](O)CC[C@]34/C=N/O)[C@@]1(O)CC[C@@H]2C1=COC(=O)C1`
Response given: active

Challenge: Proceed to CC1=NOC(=O)C1/N=N/c1ccc(Br)c(C)c1 (stereo not drawn)
Response given: inactive

Challenge: Same lookup for `CCn1cc(C(=O)O)c(=O)c2cc(F)c(N3CCN(CN4C(=O)/C(=N\NC(=O)c5ccncc5)c5cc(Cl)ccc54)CC3)cc21` , please.
Response given: inactive

Challenge: Continue with O=C(Nc1c(Cl)cc([N+](=O)[O-])cc1Cl)C(=O)C(C1OC(=O)c2ccccc21)[N+](=O)[O-] (stereo not drawn)
Response given: inactive

Challenge: Would you mind doing COC1CC(OC2C(C)OC(OC3C(C)OC(OC4C(O)CC(O[C@H]5CC[C@@]6(C)C(=CC[C@]7(O)[C@@H]6C[C@@H](OC(=O)/C=C/c6ccccc6)[C@@]6(C)[C@]7(O)CC[C@@]6(O)C(C)=O)C5)OC4C)CC3OC)CC2OC)OC(C)C1O (stereo partly drawn) as well?
Response given: inactive

Challenge: Now consider `COC(=O)c1s/c(=N\C(=S)N(C)C)n(-c2ccc(Cl)cc2)c1C(=O)OC` .
Response given: inactive

Challenge: Another compound: `Cc1ccc(S(=O)(=O)N2CCSCCN(S(=O)(=O)c3ccc(C)cc3)CCN(S(=O)(=O)c3ccc(C)cc3)CC2)cc1`
Response given: inactive

Challenge: Entry `CCOC(=O)c1cc2c([nH]1)c(O)cc1c2ccn1Cc1ccccc1` please
Response given: inactive

Challenge: Repeat for the following compound: `COC(=O)C1=C(C)NC(C)=C(C(=O)OC)C1c1cccc(/[N+]([O-])=C/c2ccccc2)c1`
Response given: inactive
